System: NCI-H23 lung
Assay: NCI tumour cell line growth inhibition, 48 h
Where a SMILES comes first, the peptide text is derived from it. The star is where a group is joined. Boc = CC(C)(C)OC(=O)*; OBn = c1ccc(CO*)cc1
readout-kind: TGI

Recorded results for 3 compounds are shown here.
1) COC(=O)C(F)C(Br)C(=O)OC (stereo unspecified) | 13.5 µM
2) C=C1C(=O)O[C@H]2[C@H]3O[C@@H](C[C@@H]12)[C@@]1(C)CC[C@H](O1)C(C)=CCC[C@H]3C | 2.96 µM
3) Cc1ccc2c(c1)-c1c(C#N)c(N)nc(-c3ccccc3)c1CCS2(=O)=O | > 62.7 µM

The following compounds each have a reported value; give each one's TGI.
1. O=c1cc(N=Nc2ccc(O)cc2)[nH]c(=O)[nH]1
2. CCOP(=O)(CN=C(c1ccccc1)c1ccccc1)OCC

> 100 µM
> 100 µM

The following compounds each have a reported value; give each one's TGI.
1. CC(C)(C)[Si](C)(C)OCCOCn1cc(F)c(=O)[nH]c1=O
2. CC(NC(=O)C(Cc1ccccc1)NC(=O)C(Cc1ccccc1)NC(=O)OC(C)(C)C)C(=O)OCc1ccccc1 (stereo not drawn) (Boc-Phe-Phe-Ala-OBn; configuration not given here)

1. > 100 µM
2. > 100 µM

The following compounds each have a reported value; give each one's TGI.
1. COC(=O)C1=C(O)c2cc3c(cc2[C@H](c2cc(OC)c(OC)c(OC)c2)C1C(=O)OC)OCO3 (stereo partly specified)
2. O=C1CCCCC/C1=C\c1ccc(Cl)cc1
3. Nc1nc(N)c(N=O)c(OCC2CCCCC2)n1
4. CC(=O)N(CN1C(=O)CCC1C(=O)O)c1cccc(O)c1 (stereo unspecified)

["> 100 µM", "> 100 µM", "> 100 µM", "> 100 µM"]

###

Tested on: SN12C renal
Assay: NCI tumour cell line growth inhibition, 48 h
So I've got a bunch of compounds here, and I need their GI50 values.

The following compounds each have a reported value; give each one's GI50.
1. O=C(c1cccnc1)c1cc(-c2ccccn2)c(=O)n2ccccc12
2. O=C(N/N=C/c1cc([N+](=O)[O-])ccc1O)c1cccc2ccccc12
3. CC(C)c1ccc(Nc2nccc(-c3cnn4ncccc34)n2)cc1

> 100 µM
6.62 µM
0.66 µM

###

So I've got a bunch of molecules here, and I need their TGI values.
Test system: LOX IMVI melanoma
Assay: NCI tumour cell line growth inhibition, 48 h

Recorded results for 3 molecules are shown here.
1. O=c1cc(N=Nc2ccc(O)cc2)[nH]c(=O)[nH]1 | > 100 µM
2. Oc1ccc(/C=C/c2ccc3cccc(O)c3n2)cc1O | 16.5 µM
3. CN(C)CC1CCCCCC(CN(C)C)C1=O (stereo not drawn) | 25 µM

The following molecules each have a reported value; give each one's TGI.
1. O=C(NN1C(=O)CSC1c1ccc(C(F)(F)F)cc1)c1ccncc1 (stereo not drawn)
2. COc1cc(/C=C2\C(=O)N(Cc3ccccc3)C(c3ccccc3)S2(=O)=O)cc(OC)c1OC (stereo not drawn)
3. CC(C)C/C=C/C1=NN(c2cccc(S(=O)(=O)O)c2)C2(C1)SCC(=O)N2c1nc2ccccc2s1 (stereo not drawn)
4. O=C(CNC(=O)OCc1ccccc1)NCCCCC(NC(=O)OCc1ccccc1)C(=O)NC(CCCCNC(=O)CNC(=O)OCc1ccccc1)C(=O)OCc1ccccc1 (stereo not drawn)

["> 100 µM", "> 100 µM", "70 µM", "> 62.5 µM"]

The following molecules each have a reported value; give each one's TGI.
1. O=C(NCCc1ccccc1)c1c(O)c2ccccc2[nH]c1=O
2. CC(c1ccccc1)/[N+]([O-])=C/c1ccccc1 (stereo not drawn)
3. CC(C)(CO)NC(=O)Nc1c(C(F)(F)F)cc(-c2ccccc2)[nH]c1=O
4. Cn1c(=O)c2c(ncn2CCCCOc2ccc3c(c2)[n+]([O-])nc(N)[n+]3[O-])n(C)c1=O
5. O=S(=O)(O)c1ccc2c(N=Nc3ccc(F)cc3)c(O)c(S(=O)(=O)O)cc2c1
6. COc1ccc(/C=C2\CCC(CN(C)C)C2=O)cc1OC (stereo not drawn)

> 100 µM
> 100 µM
> 100 µM
> 100 µM
> 100 µM
3.96 µM
